We begin with a simple list: items and their reported Tensile strength.
- assay: Compressibility (tensile strength of compressed tablet)
- Assay type: physicochemical
- reported_conditions: about 80 mg, φ6 mm round tooling, compressed at 10 kN
value_type: Tensile strength (MPa)

{"columns": ["compound", "value_type", "measurement_units", "assay_value"],
 "data": [
  ["CC#CC(=O)N1CCC[C@H]1c1nc(-c2ccc(C(=O)Nc3ccccn3)cc2)c2c(N)nccn12 [Form G]", "Tensile strength", "MPa", 1.62],
  ["CC#CC(=O)N1CCC[C@H]1c1nc(-c2ccc(C(=O)Nc3ccccn3)cc2)c2c(N)nccn12 [Form A]", "Tensile strength", "MPa", 1.35],
  ["CC#CC(=O)N1CCC[C@H]1c1nc(-c2ccc(C(=O)Nc3ccccn3)cc2)c2c(N)nccn12 [Form D]", "Tensile strength", "MPa", 0.83],
  ["CC#CC(=O)N1CCC[C@H]1c1nc(-c2ccc(C(=O)Nc3ccccn3)cc2)c2c(N)nccn12 [Form CS15]", "Tensile strength", "MPa", 1.18],
  ["CC#CC(=O)N1CCC[C@H]1c1nc(-c2ccc(C(=O)Nc3ccccn3)cc2)c2c(N)nccn12 [Form F]", "Tensile strength", "MPa", 1.02]
]}
